# METHOD_DESCRIPTION: proliferation blockers of H69AR lung cancer cells, primary screen, cell-based, human, 86K library (AID 598);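 note: multidrug resistant small cell line overexpressing MRP-1 efflux transporter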
# CONDITION_INFO: H69AR lung tumor viability, ATP luminescence, 72 h; at 10 µM
In all, about 85,000 compounds went through this assay and about 5,100 (6%) were called active.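 Rule for the calls: active = viability at or below 40%; inactive = viability above 40%.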 The list comes from a sample in which actives are over-represented; it also holds close analogues and randomly drawn compounds.
Valid outcomes are listed here; reply with one: active, inactive

Ask: Given COc1ccc(NC(=O)Nc2ccc3nc(C)c(C)nc3c2)cc1 , state the outcome it received in this test.
Reply: inactive

Ask: Given CCn1c(Cc2cccs2)nnc1SCC(=O)c1ccc(C)cc1 , state the outcome it received in this test.
Reply: inactive

Ask: Given Cc1cccc(C(=O)Nc2ccccc2N2CCN(c3ccc(F)cc3)CC2)c1 , state the outcome it received in this test.
Reply: inactive

Ask: Given Cc1ccc(CN2CCN(/N=C/c3ccco3)CC2)c(C)c1 , state the outcome it received in this test.
Reply: inactive

Ask: Given O=C(Cn1cnc2c(nnn2Cc2ccc(F)cc2)c1=O)NCc1ccc2c(c1)OCO2 , state the outcome it received in this test.
Reply: inactive

Ask: Given O=C(Cn1cnc2c(cnn2-c2ccccc2)c1=O)NCc1ccccc1 , state the outcome it received in this test.
Reply: active

Ask: Given Cc1ccc(NC(=O)CSCC(=O)N2CCOCC2)cc1 , state the outcome it received in this test.
Reply: inactive

Ask: Given COc1ccc(-c2nnc(SCc3cccnc3)o2)cc1 , state the outcome it received in this test.
Reply: inactive

Ask: Given O=C(CCc1ccccc1)NCc1cccnc1 , state the outcome it received in this test.
Reply: inactive

Ask: Given C=CCn1c(SCc2c(C(=O)OC)sc(N)c2C(=O)OC)nnc1-c1ccc(Cl)cc1 , state the outcome it received in this test.
Reply: inactive

Ask: Given COc1ccc(C2C(C(C)=O)=C(O)C(=O)N2c2nccs2)cc1 (stereo not drawn) , state the outcome it received in this test.
Reply: inactive

Ask: Given O=C(Nc1ccc(Sc2ccc(Br)cc2)cc1)c1ccco1 , state the outcome it received in this test.
Reply: inactive

Ask: Given CCOc1ccc(Cn2nnc(C(=O)NCc3ccccc3)c2N)cc1 , state the outcome it received in this test.
Reply: inactive

Ask: Given CCCc1[nH]nc2c1C(c1ccc(OC)c(Cn3nc(C)c(Br)c3C)c1)C(C#N)=C(N)O2 (stereo not drawn) , state the outcome it received in this test.
Reply: inactive

Ask: Given CCOc1ccc(CN(Cc2ccco2)S(=O)(=O)c2ccc(-n3cnnn3)c(OC)c2)cc1 , state the outcome it received in this test.
Reply: inactive

Ask: Given CNc1nc(SC)nc(N(C#N)CC(=O)OC)n1 , state the outcome it received in this test.
Reply: inactive

Ask: Given Cc1ccc(C(CC(=O)O)Nc2nc(N3CCCCC3)nc(N3CCCCC3)n2)cc1 (stereo not drawn) , state the outcome it received in this test.
Reply: inactive

Ask: Given COC(=O)CNS(=O)(=O)c1ccc(OC)cc1 , state the outcome it received in this test.
Reply: inactive

Ask: Given OC(c1ccccc1)c1nccn1Cc1ccccc1 (stereo not drawn) , state the outcome it received in this test.
Reply: inactive

Ask: Given CC(Nc1nc(N2CCCC2)nc2ccccc12)c1ccccc1 (stereo not drawn) , state the outcome it received in this test.
Reply: active

Ask: Given CN(Cc1ccccc1)C(=O)CCNC(=O)Cn1cnc2ccccc2c1=O , state the outcome it received in this test.
Reply: inactive

Ask: Given CC1=CC(C)(C)Nc2ccc(OC(=O)C(Cc3ccccc3)N3C(=O)C4CCCCC4C3=O)cc21 (stereo not drawn) , state the outcome it received in this test.
Reply: inactive

Ask: Given COC(=O)CCSc1cc([N+](=O)[O-])cc2c1c(C1OCCS1)nn2-c1ccccc1 (stereo not drawn) , state the outcome it received in this test.
Reply: inactive

Ask: Given CCOC(=O)c1ccc2c(c1)nc(C)n2CC , state the outcome it received in this test.
Reply: inactive

Ask: Given CCN(c1ccccc1)S(=O)(=O)c1ccc(N)cc1 , state the outcome it received in this test.
Reply: inactive

Ask: Given O=C1CCCCC(=O)c2ccccc2N1 , state the outcome it received in this test.
Reply: inactive

Ask: Given c1ccc2c(c1)C(=NC1CCCCC1)NC2=NC1CCCCC1 , state the outcome it received in this test.
Reply: active

Ask: Given Nc1c(C(=O)NCc2ccccc2)nnn1Cc1cccc(Cl)c1 , state the outcome it received in this test.
Reply: active

Ask: Given CCCc1nc(NCc2ccc3c(c2)OCO3)c2nnn(Cc3ccccc3Cl)c2n1 , state the outcome it received in this test.
Reply: active

Ask: Given CC(OC(=O)CN1C(=O)C2CCCCC2C1=O)C(=O)Nc1ncc(Cl)cc1Cl (stereo not drawn) , state the outcome it received in this test.
Reply: inactive

Ask: Given CCc1cccc(C)c1N(C(=O)Cn1c(CO)nc2ccccc21)C(C)COC (stereo not drawn) , state the outcome it received in this test.
Reply: inactive

Ask: Given Cc1ccc(NC(=O)Nc2ccc3oc(C)nc3c2)cc1 , state the outcome it received in this test.
Reply: inactive

Ask: Given COc1ccc(Nc2nc(=O)[nH]nc2C)cc1 , state the outcome it received in this test.
Reply: inactive

# credit: PubChem BioAssay AID598
